TGI by entry:
- System: U251 CNS
- test_method_notes: NCI tumour cell line growth inhibition, 48 h
Where a SMILES comes first, the peptide text is derived from it. [ ]: non-standard residue; d: D form. The star is where a group is joined. ξ: configuration not given here. ξNMeF = CNC(Cc1ccccc1)C(=O)O; NMeV = CN[C@H](C(=O)O)C(C)C; Boc = CC(C)(C)OC(=O)*; OBn = c1ccc(CO*)cc1
attribute_measured: TGI

compound: Nc1nc(SCC(=O)c2ccccc2)c2[nH]cnc2n1
measured_value: > 100 µM
--
compound: O=C(O)CCC(c1ccccc1)(c1ccccc1)c1ccccc1
measured_value: > 100 µM
--
compound: Cc1c(C(=O)c2ccccc2)[n+](=O)c2cc(Cl)c(Cl)cc2n1[O-]
measured_value: 29.9 µM
--
compound: Cc1ccc(Sc2ccccc2C23OC(C)(C4C(=O)N(c5ccccc5)C(=O)C42)N(C)C3=O)cc1 (centres undefined)
measured_value: > 100 µM
--
compound: NCCCNc1nc2ccccc2c2c(=O)c3cc(F)ccc3sc12
measured_value: 3.25 µM
--
compound: CC(C)[C@@H](C(=O)N(C)[C@H](C(=O)N1CCC[C@H]1C(=O)OCc1ccccc1)C(C)C)N(C)C(=O)C(Cc1ccccc1)N(C)C(=O)[C@H](NC(=O)OC(C)(C)C)C(C)C (some centres undefined) (Boc-[dV][ξNMeF][NMeV][NMeV]P-OBn)
measured_value: > 31.6 µM
--
compound: CN(C)c1ccc(C=Nc2ccc(-c3nc4ccccc4s3)cc2)cc1
measured_value: > 100 µM
--
compound: COc1cc(C(=O)/C=C/c2cc(-c3ccc4c(c3)OCO4)n[nH]2)cc(OC)c1OC
measured_value: 2.49 µM
--
compound: CC1(C)CC[C@]2(C(=O)O)CC[C@]3(C)C(=CCC4=C5C[C@H](O)[C@H](O)[C@@](C)(CO)[C@@]5(C)CC[C@]43C)[C@@H]2C1
measured_value: > 100 µM
--
compound: O=C(/C=C/c1ccc(Cl)c(Cl)c1)c1ccccc1Cl
measured_value: 10.3 µM
--
compound: CCOC(=O)C1=C(OC(OCC)C([Se]c2ccccc2)C(C)C)CCC1 (centres undefined)
measured_value: 16.6 µM
--
compound: CCC12C=CCN(CCc3c([nH]c4ccccc34)/C=C\1)C2 (centres undefined)
measured_value: > 100 µM
--
compound: O=C(NC1CC1)c1c(O)[nH]c(=S)[nH]c1=O
measured_value: > 100 µM
--
compound: Cn1ncc(C#N)c1-c1ccc2c(c1)CN([C@H](CN)Cc1cccc(F)c1)C2=O
measured_value: > 86.4 µM
--
compound: COc1ccc2c(c1)C(=Nc1ccc(F)c(Cl)c1)c1c-2c(Nc2ccc(F)c(Cl)c2)nc2ccccc12
measured_value: 43.8 µM
--
compound: CSc1c(C#N)c(=O)n(N)c2c1c(C)nn2-c1ccccc1
measured_value: > 100 µM
--
compound: O=C(Nc1ccncc1)C(=O)c1cn(S(=O)(=O)c2cccc(Cl)c2)c2ccccc12
measured_value: > 100 µM
--
compound: CSC1=NN(C(C)=O)C(C(OC(C)=O)C(OC(C)=O)C(OC(C)=O)C(COC(C)=O)OC(C)=O)S1 (centres undefined)
measured_value: > 100 µM
--
compound: N#Cc1c(Cl)cc(C#N)n2c1nc1ccccc12
measured_value: 36 µM
